FYI, the data here is from patent US9975882B2.

Recorded IC50, one value per entry.
- Test system: BTK (IL-6 production in primary CD19+ B cells)
- assay-notes: Inhibition of IL-6 production in B cells co-stimulated with ODN 2006 and anti-hIgD
- Format: cell-based
- experimental-conditions: B-cell, anti-human IgD + ODN 2006
endpoint-label: IC50

compound: CC#CC(=O)N1CC[C@]2(C1)C[C@H](n1nc(-c3ccn(Cc4cccc(C(F)(F)F)c4)n3)c(C(N)=O)c1N)C2 [Example 25]
result: 6.1 nM

compound: CC#CC(=O)N1CC[C@]2(C1)C[C@H](n1nc(-c3cn(Cc4cccc(C)c4)nc3C)c(C(N)=O)c1N)C2 [Example 52]
result: 0.5 nM

compound: CC#CC(=O)N1CC[C@]2(C1)C[C@H](n1nc(-c3cnn(Cc4cc(F)ccc4Cl)c3)c(C(N)=O)c1N)C2 [Example 55]
result: 1.5 nM

compound: CC#CC(=O)N1CC[C@]2(C1)C[C@H](n1nc(-c3cnn(Cc4ccccc4C)c3)c(C(N)=O)c1N)C2 [Example 16]
result: 2 nM

compound: CC#CC(=O)N1CC[C@]2(C1)C[C@H](n1nc(-c3cnn(Cc4cccc(C(F)(F)F)c4F)c3)c(C(N)=O)c1N)C2 [Example 33]
result: 1.2 nM

compound: CC#CC(=O)N1CC[C@]2(C1)C[C@H](n1nc(-c3cnn(Cc4ccccc4Cl)c3)c(C(N)=O)c1N)C2 [Example 54]
result: 0.4 nM

compound: CC#CC(=O)N1CC[C@]2(C1)C[C@H](n1nc(-c3cnn(Cc4cccc(C(F)(F)F)c4Cl)c3)c(C(N)=O)c1N)C2 [Example 3]
result: 1.2 nM

compound: CC#CC(=O)N1CC[C@]2(C1)C[C@H](n1nc(-c3cnn(Cc4ccccc4)c3)c(C(N)=O)c1N)C2 [Example 44]
result: 0.7 nM

compound: CC#CC(=O)N1CC[C@]2(C1)C[C@H](n1nc(-c3cnn(Cc4ccccc4F)c3)c(C(N)=O)c1N)C2 [Example 60]
result: 0.6 nM

compound: CC#CC(=O)N1CC[C@]2(C1)C[C@H](n1nc(-c3cnn(Cc4cccc(C(F)(F)F)c4C)c3)c(C(N)=O)c1N)C2 [Example 6]
result: 1 nM

compound: C=CC(=O)N1CC[C@]2(C1)C[C@H](n1nc(-c3cnn(Cc4cccc(C(F)(F)F)c4F)c3)c(C(N)=O)c1N)C2 [Example 26]
result: 4 nM

compound: CC#CC(=O)N1CC[C@]2(C1)C[C@H](n1nc(-c3cnn(Cc4cccc(C(F)(F)F)c4)c3)c(C(N)=O)c1N)C2 [Example 22]
result: 0.8 nM

compound: CC#CC(=O)N1CC[C@]2(C1)C[C@H](n1nc(-c3cnn(Cc4cccc(F)c4Cl)c3)c(C(N)=O)c1N)C2 [Example 53]
result: 0.4 nM

compound: CC#CC(=O)N1CC[C@]2(C1)C[C@H](n1nc(-c3cnn(Cc4cccc(Cl)c4)c3)c(C(N)=O)c1NC)C2 [Example 27]
result: 3.4 nM

###

- measured-on: human recombinant BTK (full length, His-tagged) (Homo sapiens (Human), UniProt Q06187)
- Sequence (Q06187 whole entry): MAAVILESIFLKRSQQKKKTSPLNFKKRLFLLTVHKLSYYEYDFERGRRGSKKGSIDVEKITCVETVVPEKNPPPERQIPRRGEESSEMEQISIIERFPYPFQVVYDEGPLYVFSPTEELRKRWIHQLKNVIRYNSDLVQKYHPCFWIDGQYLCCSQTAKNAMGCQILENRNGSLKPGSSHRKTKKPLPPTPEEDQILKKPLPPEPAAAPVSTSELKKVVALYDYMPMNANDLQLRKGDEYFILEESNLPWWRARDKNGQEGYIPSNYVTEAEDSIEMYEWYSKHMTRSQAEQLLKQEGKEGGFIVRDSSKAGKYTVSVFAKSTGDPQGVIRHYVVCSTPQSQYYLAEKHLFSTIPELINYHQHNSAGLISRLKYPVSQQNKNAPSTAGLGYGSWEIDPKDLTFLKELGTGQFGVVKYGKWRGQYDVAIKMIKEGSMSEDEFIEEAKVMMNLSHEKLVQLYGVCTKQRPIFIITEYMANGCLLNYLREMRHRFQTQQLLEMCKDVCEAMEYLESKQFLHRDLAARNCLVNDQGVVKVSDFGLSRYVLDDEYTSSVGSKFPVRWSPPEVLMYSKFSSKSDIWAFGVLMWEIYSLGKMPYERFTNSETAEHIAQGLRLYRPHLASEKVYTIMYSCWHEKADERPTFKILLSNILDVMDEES
- assay-notes: BTK Z'-LYTE assay;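 note: FRET readout of kinase phosphorylating a coumarin and fluorescein labelled synthetic peptide, detected via protease sensitivity of unphosphorylated versus phosphorylated substrate, incubated at 22 °C in 384-well plates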
- experimental-conditions: 25 μM ATP
endpoint-label: IC50

compound: CC#CC(=O)N1CC[C@]2(C1)C[C@H](n1nc(-c3cnn(Cc4ccccc4Cl)c3)c(C(N)=O)c1N)C2
endpoint-label: IC50
result: 1.5 nM
//
compound: CC#CC(=O)N1CC[C@]2(C1)C[C@H](n1nc(-c3cnn(Cc4cccc(Cl)c4)c3)c(C(N)=O)c1NC)C2
endpoint-label: IC50
result: 6.6 nM
//
compound: CC#CC(=O)N1CC[C@]2(C1)C[C@H](n1nc(-c3cnn(Cc4cccc(C(F)(F)F)n4)c3)c(C(N)=O)c1N)C2
endpoint-label: IC50
result: 1.7 nM
//
compound: CC#CC(=O)N1CC[C@]2(C1)C[C@H](n1nc(-c3cnn(Cc4cccc(F)c4)c3)c(C(N)=O)c1N)C2
endpoint-label: IC50
result: 1.2 nM
//
compound: CC#CC(=O)N1CCC2(CC(n3nc(-c4ccc(OC(C)C)cc4)c(C(N)=O)c3N)C2)C1 (stereo not drawn)
endpoint-label: IC50
result: 0.9 nM
//
compound: CC#CC(=O)N1CC2(CC(n3nc(-c4cnn(Cc5cccc(C(F)(F)F)c5)c4)c(C(N)=O)c3N)C2)C1
endpoint-label: IC50
result: 2.7 nM
//
compound: CC#CC(=O)N1CC[C@]2(C1)C[C@H](n1nc(-c3cnn(Cc4ccccc4C)c3)c(C(N)=O)c1N)C2
endpoint-label: IC50
result: 13 nM
//
compound: CC#CC(=O)N1CC[C@]2(C1)C[C@H](n1nc(-c3cnn(Cc4ccccc4C(F)(F)F)c3)c(C(N)=O)c1N)C2
endpoint-label: IC50
result: 1.7 nM
//
compound: CC#CC(=O)N1CC[C@]2(C1)C[C@H](n1nc(-c3cnn(Cc4cccc(C(F)F)c4)c3)c(C(N)=O)c1N)C2
endpoint-label: IC50
result: 1 nM
//
compound: CC#CC(=O)N1CC[C@]2(C1)C[C@H](n1nc(-c3cnn(Cc4cccc(C(F)(F)F)c4F)c3)c(C(N)=O)c1N)C2
endpoint-label: IC50
result: 1.3 nM
//
compound: CC#CC(=O)N1CC[C@]2(C1)C[C@H](n1nc(-c3cnn(Cc4cccc(C(F)(F)F)c4)c3)c(C(N)=O)c1N)C2
endpoint-label: IC50
result: 0.7 nM
//
compound: CC#CC(=O)N1CC[C@]2(C1)C[C@H](n1nc(-c3cn(Cc4cccc(C)c4)nc3C)c(C(N)=O)c1N)C2
endpoint-label: IC50
result: 7 nM
//
compound: C=CC(=O)N1CC[C@]2(C1)C[C@H](n1nc(-c3cnn(Cc4cccc(C(F)(F)F)c4F)c3)c(C(N)=O)c1N)C2
endpoint-label: IC50
result: 18 nM
//
compound: CC#CC(=O)N1CC[C@]2(C1)C[C@H](n1nc(-c3cnn(Cc4cccc(C(F)(F)F)c4C)c3)c(C(N)=O)c1N)C2
endpoint-label: IC50
result: 1.5 nM
//
compound: CC#CC(=O)N1CC[C@]2(C1)C[C@H](n1nc(-c3cnn(Cc4cc(C(F)(F)F)ccc4F)c3)c(C(N)=O)c1N)C2
endpoint-label: IC50
result: 1.9 nM
//
compound: CC#CC(=O)N1CC[C@]2(C1)C[C@H](n1nc(-c3cnn(Cc4cccc(C(F)(F)F)c4)c3)c(C(N)=O)c1NC)C2
endpoint-label: IC50
result: 8.3 nM
//
compound: CC#CC(=O)N1CC[C@]2(C1)C[C@H](n1nc(-c3cnn(Cc4ccccc4C#N)c3)c(C(N)=O)c1N)C2
endpoint-label: IC50
result: 1.8 nM
//
compound: CC#CC(=O)N1CC[C@]2(C1)C[C@H](n1nc(-c3cnn(Cc4ccccc4F)c3)c(C(N)=O)c1N)C2
endpoint-label: IC50
result: 1.7 nM
//
compound: CC#CC(=O)N1CC[C@]2(C1)C[C@H](n1nc(-c3cnn(Cc4ccc(F)cc4)c3)c(C(N)=O)c1N)C2
endpoint-label: IC50
result: 3.6 nM
//
compound: CC#CC(=O)N1CC[C@]2(C1)C[C@H](n1nc(-c3cnn(Cc4cc(F)ccc4Cl)c3)c(C(N)=O)c1N)C2
endpoint-label: IC50
result: 2.5 nM
//
compound: CC#CC(=O)N1CC[C@]2(C1)C[C@H](n1nc(-c3cn(Cc4cccc(C(F)(F)F)c4)nc3C)c(C(N)=O)c1N)C2
endpoint-label: IC50
result: 5 nM
//
compound: CC#CC(=O)N1CC[C@]2(C1)C[C@H](n1nc(-c3cnn(Cc4cccc(F)c4F)c3)c(C(N)=O)c1N)C2
endpoint-label: IC50
result: 0.8 nM
//
compound: CC#CC(=O)N1CC[C@]2(C1)C[C@H](n1nc(-c3cnn(Cc4cccc(F)c4Cl)c3)c(C(N)=O)c1N)C2
endpoint-label: IC50
result: 1.3 nM
//
compound: CC#CC(=O)N1CC[C@]2(C1)C[C@H](n1nc(-c3cnn(Cc4cccc(C(F)(F)F)c4C#N)c3)c(C(N)=O)c1N)C2
endpoint-label: IC50
result: 1.4 nM
//
compound: CC#CC(=O)N1CC[C@]2(C1)C[C@H](n1nc(-c3cnn(Cc4ccccc4)c3)c(C(N)=O)c1N)C2
endpoint-label: IC50
result: 1.4 nM
//
compound: CC#CC(=O)N1CC[C@]2(C1)C[C@H](n1nc(-c3cnn(Cc4cccc(F)c4C(F)(F)F)c3)c(C(N)=O)c1N)C2
endpoint-label: IC50
result: 2.2 nM
//
compound: CC#CC(=O)N1CC[C@]2(C1)C[C@H](n1nc(-c3cnn(Cc4ccc(F)c(C(F)(F)F)c4)c3)c(C(N)=O)c1N)C2
endpoint-label: IC50
result: 3 nM
